# Experiment notes: log P determination by HPLC on reversed-phase columns (C 18), analogous to OECD Guideline 117
# Format: physicochemical
# Test settings: acidic range, pH 2.7, 0.1% aqueous formic acid and acetonitrile
Property name: logP(HCOOH)

1) Cc1cc(F)c(-n2cnc3cnccc3c2=O)cc1[S+]([O-])CC(F)(F)F (centres unmarked); 1.60
2) Cc1cc(F)c(-n2cnc3cccnc3c2=O)cc1[S+]([O-])CC(F)(F)F (centres unmarked); 1.49
3) Cc1cc(Cl)c(-n2cnc3ncccc3c2=O)cc1SCC(F)(F)F; 2.62
4) Cc1cc(F)c(-n2cnc3ccncc3c2=O)cc1SCC(F)(F)F; 2.54
5) Cc1cc(F)c(-n2cnc3ccncc3c2=O)cc1[S+]([O-])CC(F)(F)F (centres unmarked); 1.61
